Molecular target: NONO Non-POU domain-containing octamer-binding protein (Homo sapiens)
Construct: isoTOP-ABPP experiments performed in cell lysates (in vitro); endogenous in cells; host or cells: soluble proteome of human cancer cell lines (MDA-MB-231; Ramos and Jurkat also prepared)
Sequence (Q15233 whole entry, the tested form may be a part): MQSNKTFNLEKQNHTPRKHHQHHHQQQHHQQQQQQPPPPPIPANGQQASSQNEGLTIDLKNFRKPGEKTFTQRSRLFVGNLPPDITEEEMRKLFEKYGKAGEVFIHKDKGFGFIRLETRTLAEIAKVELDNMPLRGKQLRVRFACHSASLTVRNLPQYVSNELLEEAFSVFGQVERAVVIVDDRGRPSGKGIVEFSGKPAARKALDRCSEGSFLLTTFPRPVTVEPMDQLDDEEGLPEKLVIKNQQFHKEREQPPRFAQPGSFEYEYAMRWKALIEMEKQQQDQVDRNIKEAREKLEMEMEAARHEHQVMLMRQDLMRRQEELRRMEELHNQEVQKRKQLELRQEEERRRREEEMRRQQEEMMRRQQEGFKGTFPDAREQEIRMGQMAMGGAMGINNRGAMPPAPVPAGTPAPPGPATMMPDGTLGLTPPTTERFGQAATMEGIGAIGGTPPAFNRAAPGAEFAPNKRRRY
Assay: competitive isoTOP-ABPP
Details: 50 uM, in vitro, sol, 231
quantity: isoTOP-ABPP ratio (R) at liganded lysine Q15233_K467

molecule	recorded value
O=C(Oc1ccc([N+](=O)[O-])cc1[N+](=O)[O-])c1ccccc1Nc1cccc(C(F)(F)F)c1 [fragment 40]	4.1
O=C(Oc1ccc([N+](=O)[O-])cc1[N+](=O)[O-])c1ccc(-c2ccccc2)cc1 [fragment 37]	0.8
CC(=O)Oc1ccc([N+](=O)[O-])cc1[N+](=O)[O-] [fragment 43, 2,4-Dinitrophenyl acetate]	3.1
O=C(Oc1ccc([N+](=O)[O-])cc1[N+](=O)[O-])C(c1ccccc1)(c1ccccc1)c1ccccc1 [fragment 42, 2,4-Dinitrophenyl 2,2,2-triphenylacetate]	2.5
